Below is a list of entries, each paired with its recorded Population Pyknosed Nuclei (%) value.
system: HEK-293T; assay: Multiplex assay against HEK293T; assay type: toxicity, cell-based; conditions: human, 48 h, 1 µM, compound concentration 1 uM, replicate 2
State the answer as a number, implicitly in %.

Guide cases for Population Pyknosed Nuclei (%), answers given:
COc1c(Nc2ccc(S(C)(=O)=O)nc2C)ncnc1OC1CCN(C(=O)OC(C)C)CC1 [ADP-597] :: 9
C=CCN1C[C@H](C(=O)N(CCCN(C)C)C(=O)NCC)C[C@@H]2c3cccc4[nH]cc(c34)C[C@H]21 [CABERGOLINE] :: 6
CSc1nc(NC2CCCC2)c([N+](=O)[O-])c(NC2CCCC2)n1 [GS-39783] :: 8

Problem: Name the reported Population Pyknosed Nuclei (%) value associated with the compound COc1cc(OC2CCN(C(C)=O)CC2)ccc1C(=O)N1CCC(N2C(=O)OCc3ccccc32)CC1
Result: 7

---

test system: HEK-293T; assay: Multiplex assay against HEK293T; type: toxicity, cell-based; settings: human, 24 h, 1 µM, compound concentration 1 uM, replicate 2
Reported property: Population Pyknosed Nuclei (%)

Guide cases for Population Pyknosed Nuclei (%), answers given:
O=C(Nc1cc(-c2ccccc2)nn1-c1ccccc1F)c1ccc([N+](=O)[O-])cc1 :: 8%
O=c1nc2[nH]c3ccccc3nc-2c(=O)[nH]1 :: 8%
C[C@@H]1CC(=O)Nc2cccc(-c3ccc4c(c3)c(-c3cnn(C)c3)nn4C)c2N1 :: 11%

Problem: Name the reported Population Pyknosed Nuclei (%) value associated with the molecule CN1C[C@H](C(=O)N[C@]2(C)O[C@@]3(O)[C@@H]4CCCN4C(=O)[C@H](Cc4ccccc4)N3C2=O)C[C@@H]2c3cccc4[nH]cc(c34)C[C@H]21.CS(=O)(=O)O [DIHYDROERGOTAMINE MESYLATE]
Result: 8%

Problem: Name the reported Population Pyknosed Nuclei (%) value associated with the molecule CC(C)C[C@H](CO)Nc1nc(S[C@@H](C)c2ccccc2)nc2nc(N)sc12
Result: 11%

Problem: Name the reported Population Pyknosed Nuclei (%) value associated with the molecule COC(c1ccccc1)(c1ccccc1)[C@H](Oc1nc(C)cc(C)n1)C(=O)O
Result: 8%

Problem: Name the reported Population Pyknosed Nuclei (%) value associated with the molecule Nc1nc(CC(=O)Nc2ccc(CCNC[C@H](O)c3ccccc3)cc2)cs1
Result: 7%

Problem: Name the reported Population Pyknosed Nuclei (%) value associated with the molecule COc1cc2nc(N3CCN(C(=O)COc4c(OC)cccc4C(C)C)CC3)nc(N)c2cc1OC.Cl.Cl
Result: 7%

Problem: Name the reported Population Pyknosed Nuclei (%) value associated with the molecule OCCCNc1cc(-c2ccnc(Nc3cccc(Cl)c3)n2)ccn1
Result: 10%

---

system: Fibroblast; assay: Multiplex assay against human fibroblast; format: toxicity, cell-based; settings: 12 h, 10 µM, compound concentration 10 uM, replicate 1
Reported property: Population Fragmented Nuclei (%)
State the answer as a number, implicitly in %.

Guide cases for Population Fragmented Nuclei (%), answers given:
CCC(=O)OCC(=O)[C@@]1(OC(=O)CC)[C@@H](C)C[C@H]2[C@@H]3CCC4=CC(=O)C=C[C@]4(C)[C@@]3(Cl)[C@@H](O)C[C@@]21C [BECLOMETHASONE DIPROPIONATE] :: 9
CSc1nc(NC2CCCC2)c([N+](=O)[O-])c(NC2CCCC2)n1 :: 16
CC(C)C[C@H](CO)Nc1nc(S[C@@H](C)c2ccccc2)nc2nc(N)sc12 :: 18

Problem: Name the reported Population Fragmented Nuclei (%) value associated with the molecule COc1cc2nc(N3CCN(C(=O)COc4c(OC)cccc4C(C)C)CC3)nc(N)c2cc1OC.Cl.Cl
Result: 13

Problem: Name the reported Population Fragmented Nuclei (%) value associated with the molecule Cl.Cl.OCCOCCN1CCN(C(c2ccccc2)c2ccc(Cl)cc2)CC1 (stereo unspecified) [HYDROXYZINE HYDROCHLORIDE]
Result: 27

Problem: Name the reported Population Fragmented Nuclei (%) value associated with the molecule COCCCN1CCC(NC(=O)c2cc(Cl)c(N)c3c2OCC3)CC1 [PRUCALOPRIDE]
Result: 12

Problem: Name the reported Population Fragmented Nuclei (%) value associated with the molecule CN(C)C(=O)Cn1cc(-c2ccc(-c3nnc4ccccn34)cc2)cn1
Result: 8

Problem: Name the reported Population Fragmented Nuclei (%) value associated with the molecule CN(C)C/C=C/C(=O)Nc1ccc(C(=O)N2CCCC(Nc3ncc(Cl)c(-c4c[nH]c5ccccc45)n3)C2)cc1 (stereo unspecified)
Result: 18

---

test system: Fibroblast; assay: Multiplex assay against human fibroblast; assay type: toxicity, cell-based; conditions: 24 h, 10 µM, compound concentration 10 uM, replicate 1
Non-standard residues stand in square brackets, D forms with d. Residues, ends and D or L forms follow the SMILES beside them.
Param threshold (80%) applies to Population Tubulin-Different-Phenotype (%); output TRUE when value >= threshold, FALSE when value < threshold.

Take a look at these entries with their results.
CC(C)C[C@@H]1NC(=O)[C@@H](C(C)C)NC(=O)[C@@H]2CCCN2C(=O)[C@@H](CC(=O)O)NC(=O)[C@@H](Cc2c[nH]c3ccccc23)NC1=O [BQ-123] (cyclo(L[dW][dD]P[dV])) :: FALSE
CN(C)C/C=C/C(=O)Nc1ccc(C(=O)N2CCCC(Nc3ncc(Cl)c(-c4c[nH]c5ccccc45)n3)C2)cc1 (stereo unspecified) :: TRUE
Cc1cc(=O)n(C)c2cc(N3C(=O)CC[C@H](NS(=O)(=O)CC(C)C)[C@H]3c3ccc(Cl)cc3)ccc12 :: TRUE
Cc1c(Cc2ccc3ccccc3n2)c2cc(F)ccc2n1CC(=O)O :: FALSE
COc1cc(C(=O)N2CC[C@@H](O)[C@@H](N)C2)cc2nc(-c3cc4ccccc4n3CC3CC3)n(C)c12.Cl :: TRUE

Next item in the queue.
Problem: Confirm if Population Tubulin-Different-Phenotype (%) reported for the compound CC(F)(F)CN1CCOc2c(nn(-c3ccccc3Cl)c2-c2ccc(Cl)cc2)C1=O is 80% or above.
Result: FALSE

---

tested on: HEK-293T; assay: Multiplex assay against HEK293T; type: toxicity, cell-based; settings: human, 24 h, 10 µM, compound concentration 10 uM, replicate 1
Non-standard residues stand in square brackets, D forms with d. Residues, ends and D or L forms follow the SMILES beside them.
Below is a list of entries, each paired with its recorded Population Healthy Nuclei (%) value.
State the answer as a number, implicitly in %.

COc1cc(OC2CCN(C(C)=O)CC2)ccc1C(=O)N1CCC(N2C(=O)OCc3ccccc32)CC1 :: 78
CC(C)C[C@@H]1NC(=O)[C@@H](C(C)C)NC(=O)[C@@H]2CCCN2C(=O)[C@@H](CC(=O)O)NC(=O)[C@@H](Cc2c[nH]c3ccccc23)NC1=O [BQ-123] (cyclo(L[dW][dD]P[dV])) :: 77

Now examine the next entry.
Problem: Name the reported Population Healthy Nuclei (%) value associated with the compound COc1cc(C(=O)N2CC[C@@H](O)[C@@H](N)C2)cc2nc(-c3cc4ccccc4n3CC3CC3)n(C)c12.Cl
Result: 70

---

test system: HEK-293T; assay: Multiplex assay against HEK293T; format: toxicity, cell-based; conditions: human, 48 h, 10 µM, compound concentration 10 uM, replicate 2
Reported property: Population Healthy Nuclei (%)
State the answer as a number, implicitly in %.

Guide cases for Population Healthy Nuclei (%), answers given:
C=CCN1C[C@H](C(=O)N(CCCN(C)C)C(=O)NCC)C[C@@H]2c3cccc4[nH]cc(c34)C[C@H]21 [CABERGOLINE] :: 82
COc1cc(Nc2ncc3c(n2)-c2ccc(Cl)cc2C(c2c(F)cccc2OC)=NC3)ccc1C(=O)O [ALISERTIB] :: 61
COC(c1ccccc1)(c1ccccc1)[C@H](Oc1nc(C)cc(C)n1)C(=O)O [AMBRISENTAN] :: 79
COc1cc(OC2CCN(C(C)=O)CC2)ccc1C(=O)N1CCC(N2C(=O)OCc3ccccc32)CC1 :: 80
CCc1nn2c(C)cc(C)nc2c1Cc1ccc(-c2nnc(C3CCNCC3)o2)cc1 :: 80

Problem: Name the reported Population Healthy Nuclei (%) value associated with the compound Cl.Cl.OCCOCCN1CCN(C(c2ccccc2)c2ccc(Cl)cc2)CC1 (configuration not stated) [HYDROXYZINE HYDROCHLORIDE]
Result: 72

Problem: Name the reported Population Healthy Nuclei (%) value associated with the compound CCCCCCNC(=O)Nc1ccc(S(=O)(=O)Nc2ccc(CCNC[C@H](O)COc3ccc(O)cc3)cc2)cc1 [L-755507]
Result: 80

---

tested on: U2OS; experiment: Multiplex assay against U2OS; type: toxicity, cell-based; details: human, 48 h, 1 µM, compound concentration 1 uM, replicate 1
Below is a list of entries, each paired with its recorded Population Pyknosed Nuclei (%) value.
# number then unit; no other words

Nc1nc(CC(=O)Nc2ccc(CCNC[C@H](O)c3ccccc3)cc2)cs1 :: 9%
O=c1nc2[nH]c3ccccc3nc-2c(=O)[nH]1 :: 9%

Now examine the next entry.
Problem: Name the reported Population Pyknosed Nuclei (%) value associated with the compound CCCCC[C@H](O)/C=C/[C@H]1[C@H](O)CC(=O)[C@@H]1CCCCCCC(=O)O
Result: 9%
